Values compiled from paper PMC8151276.

- SYSTEM_TESTED: ACKR3 (Homo sapiens, UniProt P25106)
- Construct: purchased Promega (in-house HiBiT-GPCR construct library, NanoBRET)
- Sequence (P25106 whole entry): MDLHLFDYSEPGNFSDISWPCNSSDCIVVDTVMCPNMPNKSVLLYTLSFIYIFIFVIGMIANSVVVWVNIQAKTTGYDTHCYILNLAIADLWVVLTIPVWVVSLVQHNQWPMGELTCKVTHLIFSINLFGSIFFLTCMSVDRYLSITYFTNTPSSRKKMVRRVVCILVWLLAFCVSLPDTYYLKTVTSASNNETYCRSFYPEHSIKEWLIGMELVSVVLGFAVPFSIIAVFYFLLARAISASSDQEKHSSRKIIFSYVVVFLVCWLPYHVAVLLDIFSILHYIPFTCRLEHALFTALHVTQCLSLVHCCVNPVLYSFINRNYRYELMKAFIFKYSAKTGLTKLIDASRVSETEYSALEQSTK
- METHOD_NOTES: NanoBRET screen HiBiT-ACKR3 in HEK293
- Format: binding
- ASSAY_CONTEXT: ACKR3; tracer 0.1μM
Hi there, I'd appreciate the recorded NanoBRET Fold Response for every entry that follows.
One number for each entry.

Worked set:
1) COc1ccccc1N1CCN(CCCCN2C(=O)c3ccc(CNC(=O)CCOCCOCCOCCOCCNC(=O)CCc4ccc5n4[B-](F)(F)[N+]4=C(c6ccc[nH]6)C=CC4=C5)cc3C2=O)CC1 ... 1.09
2) Cc1cc2c(s1)Nc1ccccc1N=C2N1CCN(CCCNC(=O)CCOCCOCCOCCOCCNC(=O)CCc2ccc3n2[B-](F)(F)[N+]2=C(c4ccc[nH]4)C=CC2=C3)CC1 ... 0.94

Next, consider the following molecule.
Query :: Looking for the measured NanoBRET Fold Response of Cc1nc2n(c(=O)c1CCN1CCC(c3noc4cc(F)ccc34)CC1)CCCC2OC(=O)NCCOCCOCCOCCOCCNC(=O)CCc1ccc2n1[B-](F)(F)[N+]1=C(c3ccc[nH]3)C=CC1=C2 (stereo not drawn) , can you help?
Result :: 1.07
